assayedTarget: human recombinant adrenergic α2B receptor (Homo sapiens, UniProt P18089)
Construct: expressed in transfected cells; host or cells: CHO-K1
Sequence (P18089 whole entry): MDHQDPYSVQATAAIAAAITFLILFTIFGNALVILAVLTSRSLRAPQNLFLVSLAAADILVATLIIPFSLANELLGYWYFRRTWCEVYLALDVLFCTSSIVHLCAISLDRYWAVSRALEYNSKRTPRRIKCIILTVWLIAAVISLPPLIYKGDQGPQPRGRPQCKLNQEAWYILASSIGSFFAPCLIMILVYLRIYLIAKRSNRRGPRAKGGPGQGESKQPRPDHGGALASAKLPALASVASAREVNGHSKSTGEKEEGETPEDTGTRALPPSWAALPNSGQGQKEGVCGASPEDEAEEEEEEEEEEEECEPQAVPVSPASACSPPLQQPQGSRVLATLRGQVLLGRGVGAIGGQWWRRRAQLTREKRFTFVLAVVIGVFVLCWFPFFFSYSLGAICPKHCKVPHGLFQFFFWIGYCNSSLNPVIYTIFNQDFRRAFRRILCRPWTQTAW
measurementDescription: Radioligand binding, adrenergic α2B ([3H]Rauwolscine)
conditions: 0.1 μM compound; read-out: Percentage inhibition of ligand binding, Adrenergic α2B
Threshold rule: inhibition at 0.1 µM greater than or equal to 90% is 1.0; below that, 0.0.

Below, 2 compounds whose answers are already recorded.
compound | categoryLabel
C/C(=C\n1c2c(c3cc(Cl)ccc31)CN(C)CC2)c1cccc(S(C)(=O)=O)c1 | 0.0
Cc1ccc2c(c1)c1c(n2/C=C/c2cnc3ccccc3c2)CCN(C)C1 | 1.0

[Q] Check this compound for inhibition at 0.1 µM at or above 90%: Cc1ccc2c(c1)c1c(n2CCc2cccc3c2CCNC3)CCN(C)C1
[A] 0.0

[Q] Check this compound for inhibition at 0.1 µM at or above 90%: C/C(=C\n1c2c(c3cc(C)ccc31)CN(C)CC2)c1cnccc1C
[A] 1.0

[Q] Check this compound for inhibition at 0.1 µM at or above 90%: Cc1ccc(C(C)(O)Cn2c3c(c4cc(Cl)ccc42)CN(C)CC3)cc1 (stereo not drawn)
[A] 0.0

[Q] Check this compound for inhibition at 0.1 µM at or above 90%: C/C(=C\n1c2c(c3cc(C)ccc31)CN(C)CC2)c1cccnc1
[A] 1.0

[Q] Check this compound for inhibition at 0.1 µM at or above 90%: C/C(=C/n1c2c(c3cc(C)ccc31)CN(C)CC2)c1cnn(C)c1
[A] 1.0

[Q] Check this compound for inhibition at 0.1 µM at or above 90%: Cc1ccc2c(c1)c1c(n2CNc2ccccc2)CCN(C)C1
[A] 1.0

[Q] Check this compound for inhibition at 0.1 µM at or above 90%: C/C(=C/n1c2c(c3cc(C)ccc31)CN(C)CC2)c1ccc2ccccc2c1
[A] 0.0

###

assayedTarget: human recombinant adrenergic α2A receptor (Homo sapiens)
Sequence (P08913 1-465): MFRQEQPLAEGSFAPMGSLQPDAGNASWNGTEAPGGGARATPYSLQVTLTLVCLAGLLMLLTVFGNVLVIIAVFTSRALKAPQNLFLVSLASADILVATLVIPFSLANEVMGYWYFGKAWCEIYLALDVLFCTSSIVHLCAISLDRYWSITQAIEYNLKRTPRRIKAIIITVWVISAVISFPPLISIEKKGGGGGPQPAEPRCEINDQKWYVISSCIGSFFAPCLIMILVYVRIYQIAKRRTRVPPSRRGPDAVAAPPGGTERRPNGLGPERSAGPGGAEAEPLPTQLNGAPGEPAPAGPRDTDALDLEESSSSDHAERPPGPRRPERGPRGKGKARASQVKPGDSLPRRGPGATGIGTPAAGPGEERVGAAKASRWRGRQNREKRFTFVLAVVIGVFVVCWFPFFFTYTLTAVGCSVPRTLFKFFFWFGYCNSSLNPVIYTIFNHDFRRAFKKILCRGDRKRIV
measurementDescription: Radioligand binding, adrenergic α2A ([3H]MK-912)
readoutType: pKi
Remember the convention: pKi equals -log10 of concentration in molar.

compound | pKi
Cc1ccc(C(C)(O)Cn2c3c(c4cc(Cl)ccc42)CN(C)CC3)cn1 (single isomer, unassigned) [93a] | 7.04
Cc1ccc2c(c1)c1c(n2CCc2ccc(Cl)cc2)CCN(C)C1 | 6.74
C/C(=C\n1c2c(c3cc(Cl)ccc31)CN(C)CC2)c1ccncc1 | 7.68
Cc1ccc2c(c1)c1c(n2CC(C)(O)c2ccc(C)nc2)CN(C)CC1 (single isomer, unassigned) [196a] | 7.77
Cc1ccc2c(c1)c1c(n2CC(O)c2ccncc2)CCN(C)C1 (centres unmarked) | 9.59

[Q] GET /values?readout=pKi&system=human recombinant adrenergic α2A receptor (Homo sapiens)&item= Cc1ccc2c(c1)c1c(n2CC(C)(O)c2cccnc2)CN(C)CC1 (single isomer, unassigned) [14a]
[A] 6.91

[Q] GET /values?readout=pKi&system=human recombinant adrenergic α2A receptor (Homo sapiens)&item= Cc1ccc2c(c1)c1c(n2CC(O)c2ccc(F)cc2)CCN(C)C1 (single isomer, unassigned) [30b]
[A] 7.85

[Q] GET /values?readout=pKi&system=human recombinant adrenergic α2A receptor (Homo sapiens)&item= C/C(=C\n1c2c(c3cc(C)ccc31)CN(C)CC2)c1sccc1C
[A] 8.54

[Q] GET /values?readout=pKi&system=human recombinant adrenergic α2A receptor (Homo sapiens)&item= Cc1ccc2c(c1)c1c(n2CC(O)c2ccc(C(N)=O)cc2)CCN(C)C1 (centres unmarked)
[A] 6.41

[Q] GET /values?readout=pKi&system=human recombinant adrenergic α2A receptor (Homo sapiens)&item= Cc1ccc2c(c1)c1c(n2CC(C)(O)c2ccc(F)cc2)CCN2CCCC12 (single isomer, unassigned) [II-121a]
[A] 8.34

[Q] GET /values?readout=pKi&system=human recombinant adrenergic α2A receptor (Homo sapiens)&item= Cc1ccc2c(c1)c1c(n2CC(O)c2ccncc2)CN(C)CC1 (single isomer, unassigned)
[A] 5.68

[Q] GET /values?readout=pKi&system=human recombinant adrenergic α2A receptor (Homo sapiens)&item= Cc1ccc2c(c1)c1c(n2CC(C)(O)c2cccnc2)CNCC1 (single isomer, unassigned) [128a]
[A] 7.01

[Q] GET /values?readout=pKi&system=human recombinant adrenergic α2A receptor (Homo sapiens)&item= Cc1ccc2c(c1)c1c(n2CC(C)(O)c2ccc(C)nc2)CCN(C)C1 (single isomer, unassigned) [29a]
[A] 7.11

[Q] GET /values?readout=pKi&system=human recombinant adrenergic α2A receptor (Homo sapiens)&item= CN1CCc2c(c3cc(Cl)ccc3n2CC(O)c2ccncc2)C1 (single isomer, unassigned)
[A] 6.75

[Q] GET /values?readout=pKi&system=human recombinant adrenergic α2A receptor (Homo sapiens)&item= Cc1ccc2c(c1)c1c(n2CCc2ccc(C)nc2)CCN2CCCC12 (single isomer, unassigned) [197b]
[A] 7.92

[Q] GET /values?readout=pKi&system=human recombinant adrenergic α2A receptor (Homo sapiens)&item= Cc1ccc2c(c1)c1c(n2CC(C)(O)c2ccc(C)nc2)CCN2CCCC12 (single isomer, unassigned) [II-128b]
[A] 7.88

[Q] GET /values?readout=pKi&system=human recombinant adrenergic α2A receptor (Homo sapiens)&item= CN1CCc2c(c3cc(Cl)ccc3n2CCc2ccccc2)C1
[A] 8.94

[Q] GET /values?readout=pKi&system=human recombinant adrenergic α2A receptor (Homo sapiens)&item= Cc1cc(C)c2c(c1)c1c(n2CC(O)c2ccncc2)CCN2CCCC12 (single isomer, unassigned) [II-125b]
[A] 8.92

[Q] GET /values?readout=pKi&system=human recombinant adrenergic α2A receptor (Homo sapiens)&item= Cc1ccc2c(c1)c1c(n2CC(C)(O)c2ccc(F)cc2)CCN2CCCC12 (single isomer, unassigned) [II-121b]
[A] 8.04

[Q] GET /values?readout=pKi&system=human recombinant adrenergic α2A receptor (Homo sapiens)&item= Cc1ccc(CCn2c3c(c4c(Cl)ccc(Cl)c42)CN(C)CC3)cn1
[A] 8.01

[Q] GET /values?readout=pKi&system=human recombinant adrenergic α2A receptor (Homo sapiens)&item= Cc1ccc2c(c1)c1c(n2CC(N)c2ccncc2)CCN(C)C1 (single isomer, unassigned) [27a]
[A] 5.96

The reported measurements were obtained from patent US8791132B2.
